All values here come from the METLIN SMRT retention time set (Domingo-Almenara et al. 2019).

- ASSAY_METHOD_TEXT: gradient 5% acetonitrile 3 min, to 50% in 2 min, to 85% in 15 min, held 3 min, 100 µL/min
- CONDITION_LABEL: column: Zorbax Extend-C18 2.1 x 50 mm; eluents: water / acetonitrile, 0.1% formic acid
ENDPOINT_LABEL: RP-LC retention time (s)
Your answer is read as s, so omit the unit and give the number.

Some molecules with known RP-LC retention time results, for comparison:
COC(=O)c1ncn2c1C(=O)N(Cc1cccc(C)c1)C(C)(C(=O)NCc1ccc(C)cc1)C2 (centres undefined): 801
CCOC(=O)c1nc(NCCc2ccc(C)cc2)c2ccccc2n1: 821

Please give the measured RP-LC retention time for this molecule: COc1ccc(-c2cn3c(CC(=O)Nc4ccc(OC)c(Cl)c4)csc3n2)cc1
805

Query (molecule): O=C(Nc1ccc(F)c(Cl)c1)c1cn2c(n1)CSCC2 ; field requested: RP-LC retention time
807

----------
- ASSAY_METHOD_TEXT: gradient 5% acetonitrile 3 min, to 50% in 2 min, to 85% in 15 min, held 3 min, 100 µL/min
- CONDITION_LABEL: column: Zorbax Extend-C18 2.1 x 50 mm; eluents: water / acetonitrile, 0.1% formic acid
ENDPOINT_LABEL: RP-LC retention time (s)
Your answer is read as s, so omit the unit and give the number.

Some solved entries appear below for comparison.
O=C(NCc1cc(F)cc(F)c1)c1cn2cc(Cl)ccc2n1: 857
O=C(c1ccoc1)N1CCCn2nc(-c3ccc(Cl)cc3)cc2C1: 802
CCN1C(=O)COc2ccc(-c3noc(C4CC(=O)N(c5cccc(Cl)c5)C4)n3)cc21 (stereo not given): 1010
CCOc1ccc(CNC(=O)c2cnc(N3CCN(C4CCCCC4)CC3)nc2N)cc1: 658
Cc1cccc(-c2c3c(=O)n(C)c(=O)n(C)c3c3n2CCOC3c2ccco2)c1 (stereo not given): 934
COc1ccccc1CC(=O)Nc1cccn2c(C)nnc12: 678
CCN(C(=O)c1ccc(C(C)(C)C)cc1)c1nc(-c2ccccc2)cs1: 949
COc1ccc(-c2ccnc3nc(CC(C)C)nn23)c(F)c1: 904
CC1CCN(c2cc3c(cc2NC(=O)c2ccco2)n(C)c(=O)c(=O)n3C)CC1: 632
CC1=CC2(C)NC(=O)C(C)C12 (stereo not given): 710

Moving on to the next compound.
So what's the measured RP-LC retention time for this one? Cc1cc(NC(=O)C2CCN(S(=O)(=O)c3cn(C(C)C)cn3)CC2)ccc1Br
876

----------
- ASSAY_METHOD_TEXT: gradient 5% acetonitrile 3 min, to 50% in 2 min, to 85% in 15 min, held 3 min, 100 µL/min
- CONDITION_LABEL: column: Zorbax Extend-C18 2.1 x 50 mm; eluents: water / acetonitrile, 0.1% formic acid
Examples of compounds with documented RP-LC retention time follow.
The response must be a number in s with no trailing unit.

CN(C(=O)CN1CCCn2nc(C(=O)O)cc2C1=O)c1ccccc1: 627
CCCCOc1ccc(-c2cc3c4nnc(CCC(=O)N5CCN(CC)CC5)n4ccn3n2)cc1: 680
CC(C)(C)C(=O)Nc1ccc(N2CCN(CCC#N)CC2)cc1C(=O)O: 611
Cc1ccc(S(=O)(=O)c2cnc(N3CCC4(CC3)OCCO4)nc2N)cc1C: 900
CCc1noc(-c2ccnc(-n3ncc(C(=O)N4CCC(C)CC4)c3C)c2)n1: 1020
COc1cccc(N2CCN(S(=O)(=O)c3nn(C)cc3C(=O)NC3CC3)CC2)c1: 818
CCn1nnc2cc(-c3noc(C4CC(=O)N(c5cccc(Cl)c5)C4)n3)ccc21 (stereo not given): 809
C=CCNC(=O)Cn1c2c(c(=O)n3nc(-c4ccc(C)cc4)nc13)CCC2: 720

Consider the record given below.
Which RP-LC retention time reading was recorded for the compound CS(=O)(=O)N(C1CCOCC1)C1CCN(C(=O)c2ccc(Cl)cc2)CC1 ?
840

----------
- ASSAY_METHOD_TEXT: gradient 5% acetonitrile 3 min, to 50% in 2 min, to 85% in 15 min, held 3 min, 100 µL/min
- CONDITION_LABEL: column: Zorbax Extend-C18 2.1 x 50 mm; eluents: water / acetonitrile, 0.1% formic acid
Entries annotated with measured RP-LC retention time
State the answer as a number, implicitly in s.

CCN1CCN(C(=O)C2CCN(S(=O)(=O)c3ccc4c(c3)sc(=O)n4C)CC2)CC1: 551
O=C1COc2ccc(S(=O)(=O)N3CCC(C(=O)Nc4ccc(OC(F)(F)F)cc4)CC3)cc2N1: 909

Item under review: COCCNC(=O)c1cc2occc2c(Nc2ccc(Br)c(C)c2)n1 . Reported RP-LC retention time?
1040

Given the compound CCC(=O)N1CCc2cc(N3CC(C(=O)Nc4ccccc4CC)CC3=O)ccc21 (stereo not given) , what is its reported RP-LC retention time?
750

Fill in the blank: the reported RP-LC retention time of O=C(NCCc1c[nH]c2ccc(Cl)cc12)c1cc2n(n1)CCCN(Cc1ccc(Cl)cc1)C2=O is ____.
998

----------
- ASSAY_METHOD_TEXT: gradient 5% acetonitrile 3 min, to 50% in 2 min, to 85% in 15 min, held 3 min, 100 µL/min
- CONDITION_LABEL: column: Zorbax Extend-C18 2.1 x 50 mm; eluents: water / acetonitrile, 0.1% formic acid
Please use TRUE for RP-LC retention time under 800 s and FALSE for everything else, ties included.

Here are 6 molecules together with their reported answers.
O=C(c1ccc(Br)o1)N1CCN(c2ccc(=O)n(-c3ccc(Cl)cc3)n2)CC1: FALSE
COc1cccc(NC(=O)Nc2c(-c3ccc(F)cc3)nc3ccccn23)c1: TRUE
CCc1ccc(NC(=O)Cn2nc(N3CCC(C)CC3)c3ccccc3c2=O)cc1: FALSE
COCCN1C(=O)c2cccn2CC1CNS(=O)(=O)c1c(C)noc1C (stereo not given): TRUE
CCN(C(=O)c1ccc(OC)c(OC)c1)c1nc(-c2ccc(Br)cc2)cs1: FALSE
CN(C)CCNC(=O)C1CCN(S(=O)(=O)c2ccc3c(c2)sc(=O)n3C)CC1: TRUE

RP-LC retention time strictly < 800 s for this molecule? COCC1CN(Cc2cc3ccc(C)cc3[nH]c2=O)CCC1(F)F (stereo not given)
TRUE

RP-LC retention time strictly < 800 s for this molecule? O=C(Cn1cccc1-c1nc(-c2ccc3c(c2)OCO3)no1)Nc1ccc(Cl)cc1
FALSE

Problem: For the molecule O=C(Nc1ccccc1)C12CC1/C(=N\O)c1ccccc1O2 (stereo not given) , is RP-LC retention time under 800 s?
FALSE

is_below(RP-LC retention time, 800 s) for CC(C(=O)N1CCN(Cc2ccccc2)CC1)N1C(=O)CCCc2ccccc21 (stereo not given) ?
TRUE

Quick check: does CCOC(=O)C(=O)Nc1cc(Cl)ccc1C#N have RP-LC retention time under 800 s?
TRUE

Hello, is RP-LC retention time of the following molecule strictly smaller than 800 s? CCOC(=O)N1CCc2c(sc(NC(=O)C3CCCN(S(C)(=O)=O)C3)c2C#N)C1 (stereo not given)
TRUE

Quick check: does CNC(=O)C1CN(C(=O)c2ccccc2C(F)(F)F)CC12CCCC2 (stereo not given) have RP-LC retention time under 800 s?
TRUE

Is the reported RP-LC retention time for COCCCNC(=O)Cc1csc(SCc2ccc(Br)cc2)n1 strictly below 800 s?
FALSE

Answer whether the molecule Cc1ccc(NC(=O)C2CCCN(S(=O)(=O)c3cc(-c4noc(C)n4)cs3)C2)c(C)c1 (stereo not given) has RP-LC retention time strictly less than 800 s
FALSE

Does Cn1nc2n(c1=O)CCN(Cc1ccc(C(C)(C)C)cc1)C2 have RP-LC retention time strictly under 800 s?
TRUE

Item CO[C@@H]1C=C2CCN(C)[C@@H]2C2c3cc4c(cc3C(=O)O[C@H]21)OCO4 (stereo not given in full) : RP-LC retention time beneath 800 s, strictly?
TRUE

Please indicate whether the reported RP-LC retention time of COc1cc(C(=O)NC2CCN(c3cc(-c4ccccc4)[nH]n3)C2)cc(OC)c1OC (stereo not given) is strictly below 800 s.
TRUE

Problem: For the molecule COc1ccccc1N1C=C(C#N)S(=O)(=O)c2ccccc21 , is RP-LC retention time under 800 s?
FALSE

Regarding CCCCCC(=O)Nc1nc(-c2ccc(C)cc2C)cs1 , kindly confirm whether its RP-LC retention time is beneath 800 s.
FALSE

API: query returns whether the molecule falls strictly under 800 s in RP-LC retention time. Query: COc1ccc2[nH]cc(CCNC(=O)CN3C(=O)c4cccnc4Sc4ccccc43)c2c1
TRUE

Please let me know if COc1ccc(-c2csc(NC(=O)Cn3c(=O)sc4ccccc43)n2)cc1 shows RP-LC retention time below 800 s.
FALSE

# TODO verify RP-LC retention time < 800 s strictly for this molecule: CCCc1noc(-c2ccnc(-n3ncc(C(=O)N4CCCC4)c3C)c2)n1
FALSE

Lab note: confirm whether the reported RP-LC retention time for this molecule is below 800 s, equality not counting. molecule: Cc1ccc(CNC(=O)C2(C)CN(S(C)(=O)=O)CC(=O)N2c2cccc(Cl)c2)cc1 (stereo not given)
FALSE

Lab log: compare recorded RP-LC retention time with 800 s; is it strictly lower for CN(Cc1nc2cc(C(=O)N3CCCC3)ccc2n1C)C(=O)Nc1ccc(Br)cc1F ?
TRUE

Does the reported RP-LC retention time of CCOC(=O)C1=C(CN2CCN(C3CCCCC3)CC2)NC(=O)NC1c1ccccc1 (stereo not given) stay below 800 s?
TRUE

Please state whether RP-LC retention time is below 800 s for Cc1nn(-c2ccc(C(=O)NCc3cc(F)cc(F)c3)cn2)c(C)c1C
FALSE

Could you please tell me whether RP-LC retention time recorded for COC(=O)c1ccccc1NC(=O)CN1CCC(c2nc(-c3cccc(F)c3)no2)CC1 is less than 800 s?
TRUE

Is RP-LC retention time strictly under 800 s for the entry COc1ccc(N2CC(c3nc(-c4ccc5c(c4)OCO5)no3)CC2=O)cc1Cl (stereo not given) ?
FALSE

is_below(RP-LC retention time, 800 s) for COc1ccc(C(=O)N2[C@H]3CC[C@@H]2c2cnc(C)nc2C3)cn1 ?
TRUE
